Value source: patent US9243001B2

assay-target: wild-type EZH2 (PRC2 enzyme) (Homo sapiens, UniProt Q15910)
Construct: made in house; host or cells: Spodoptera frugiperda (sf9) cells, baculovirus
Sequence (Q15910 1-751 isoform Q15910-2): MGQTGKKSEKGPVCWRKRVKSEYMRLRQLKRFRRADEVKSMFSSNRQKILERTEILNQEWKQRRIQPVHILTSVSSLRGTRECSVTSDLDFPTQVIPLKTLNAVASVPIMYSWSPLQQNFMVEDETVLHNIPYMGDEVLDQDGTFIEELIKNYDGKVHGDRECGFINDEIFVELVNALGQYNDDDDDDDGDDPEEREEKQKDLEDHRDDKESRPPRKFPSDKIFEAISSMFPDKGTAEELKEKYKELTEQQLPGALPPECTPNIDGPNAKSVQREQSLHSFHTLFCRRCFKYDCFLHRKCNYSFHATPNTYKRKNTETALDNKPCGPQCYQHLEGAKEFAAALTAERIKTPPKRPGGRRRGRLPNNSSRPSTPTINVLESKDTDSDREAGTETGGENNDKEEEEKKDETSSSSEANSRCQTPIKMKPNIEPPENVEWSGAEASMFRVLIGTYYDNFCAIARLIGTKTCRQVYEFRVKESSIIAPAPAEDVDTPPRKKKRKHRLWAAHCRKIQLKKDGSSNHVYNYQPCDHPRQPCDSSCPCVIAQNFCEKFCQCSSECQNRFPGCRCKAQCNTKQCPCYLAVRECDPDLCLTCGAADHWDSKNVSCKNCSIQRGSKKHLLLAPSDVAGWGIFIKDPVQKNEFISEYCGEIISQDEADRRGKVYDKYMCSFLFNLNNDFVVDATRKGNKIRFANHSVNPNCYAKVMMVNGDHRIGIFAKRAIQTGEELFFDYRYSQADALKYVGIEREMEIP
Sequence (O75530 whole entry partner): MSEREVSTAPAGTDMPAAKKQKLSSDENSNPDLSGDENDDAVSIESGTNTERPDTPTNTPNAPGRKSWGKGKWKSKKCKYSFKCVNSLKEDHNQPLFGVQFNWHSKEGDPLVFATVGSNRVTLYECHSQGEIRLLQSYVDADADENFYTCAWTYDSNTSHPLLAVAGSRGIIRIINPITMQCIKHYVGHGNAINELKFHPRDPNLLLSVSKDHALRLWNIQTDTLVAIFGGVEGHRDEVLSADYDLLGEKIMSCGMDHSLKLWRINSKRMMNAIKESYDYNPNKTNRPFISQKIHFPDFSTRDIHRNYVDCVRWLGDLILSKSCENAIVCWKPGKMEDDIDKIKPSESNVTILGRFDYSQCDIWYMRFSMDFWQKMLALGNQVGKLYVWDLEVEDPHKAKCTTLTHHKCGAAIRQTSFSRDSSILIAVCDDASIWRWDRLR
Sequence (Q15022 whole entry partner): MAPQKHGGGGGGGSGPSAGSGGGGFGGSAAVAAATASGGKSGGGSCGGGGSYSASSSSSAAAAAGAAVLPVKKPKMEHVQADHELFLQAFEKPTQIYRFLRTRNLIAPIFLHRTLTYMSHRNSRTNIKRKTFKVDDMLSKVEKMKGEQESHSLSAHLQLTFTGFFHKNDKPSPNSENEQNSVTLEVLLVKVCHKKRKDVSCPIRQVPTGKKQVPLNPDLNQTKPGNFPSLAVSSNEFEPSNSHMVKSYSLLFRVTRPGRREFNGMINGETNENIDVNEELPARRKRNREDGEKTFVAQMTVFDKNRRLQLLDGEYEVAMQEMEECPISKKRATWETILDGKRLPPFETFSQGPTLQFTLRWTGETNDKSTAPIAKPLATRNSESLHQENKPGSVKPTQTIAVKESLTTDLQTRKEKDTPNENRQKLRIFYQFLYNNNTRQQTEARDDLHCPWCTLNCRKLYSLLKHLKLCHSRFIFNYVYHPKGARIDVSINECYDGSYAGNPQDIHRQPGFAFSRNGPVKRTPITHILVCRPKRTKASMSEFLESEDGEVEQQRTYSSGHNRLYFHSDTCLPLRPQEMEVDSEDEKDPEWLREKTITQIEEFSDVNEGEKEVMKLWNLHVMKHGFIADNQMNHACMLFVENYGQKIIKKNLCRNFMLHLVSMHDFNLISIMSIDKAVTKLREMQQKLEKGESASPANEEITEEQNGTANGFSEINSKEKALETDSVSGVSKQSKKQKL
Sequence (Q09028 whole entry partner): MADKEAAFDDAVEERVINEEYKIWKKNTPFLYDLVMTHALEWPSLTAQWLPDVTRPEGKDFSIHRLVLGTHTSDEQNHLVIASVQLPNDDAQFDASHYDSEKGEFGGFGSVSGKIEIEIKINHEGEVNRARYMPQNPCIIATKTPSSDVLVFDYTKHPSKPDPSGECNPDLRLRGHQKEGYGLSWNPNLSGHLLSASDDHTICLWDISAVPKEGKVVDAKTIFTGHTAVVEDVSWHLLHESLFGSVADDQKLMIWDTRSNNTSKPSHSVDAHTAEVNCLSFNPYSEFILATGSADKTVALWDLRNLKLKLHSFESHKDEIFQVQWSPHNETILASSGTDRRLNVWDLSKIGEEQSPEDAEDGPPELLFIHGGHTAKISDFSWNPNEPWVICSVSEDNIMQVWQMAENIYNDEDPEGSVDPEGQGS
experimental-details: PRC2 enzyme assay on peptide substrates (wild-type EZH2)
Type: biochemical
recorded-conditions: wild-type PRC2 enzyme 4 nM, H3K27me0 peptide substrate, 3H-SAM Flashplate; read-out: WT EZH2 IC50
quantity-name: IC50

Q: Look up IC50: "CCN(c1cc(Cl)cc(C(=O)NCc2ncc[nH]2)c1C)[C@H]1CC[C@H](N(C)C)CC1"
Result: > 10 µM

Q: What about "CCN(c1cc(Cl)cc(C(=O)NCc2nccn2C)c1C)C1CCOCC1" ?
Result: 23.7 µM

Q: What about "CCN(c1cc(Cl)cc(C(=O)NCc2cnn(C)c2C)c1C)C1CCOCC1" ?
Result: > 50 µM

Q: What about "CCN(c1cc(Cl)cc(C(=O)NCc2nccs2)c1C)C1CCOCC1" ?
Result: > 50 µM

Q: What about "CCN(c1cc(Cl)cc(C(=O)NCc2cc(C)on2)c1C)C1CCOCC1" ?
Result: > 50 µM

Q: What about "CCN(c1cc(Cl)cc(C(=O)NCCc2nccn2Cc2ccccc2)c1C)[C@H]1CC[C@H](N(C)C)CC1" ?
Result: 1.65 µM
